B1: ATE1 (parent)
chain: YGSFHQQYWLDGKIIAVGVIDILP

- Variants of: B1
- assay protocol: protein stability index of a GFP-peptide fusion (GPS, HEK-293T) (PSI 1-6); higher = more stable;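 note: lentivirally expressed fusions sorted by FACS into six bins by GFP to DsRed ratio, PSI derived from sequencing read proportions per bin multiplied by bin number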
- test settings: c terminus: a fixed tail appended
Entries annotated with measured protein stability index

Reference set, count: 5
G2R ... 3.47
F4E ... 3.75
I22D ... 2.81
Y8I ... 3.92
G18E ... 2.28

Query string: What value of measured protein stability index is listed for L23K ?
Result string: 2.49

Query string: # iterate: D21T
Result string: 3

Query string: Would you mind doing I15G as well?
Result string: 3.26

Query string: And what about the variant I22F ?
Result string: 2.93

Query string: Also D21M , if possible.
Result string: 1.81

Query string: And G2P ?
Result string: 3.53

Query string: // query: Q7P
Result string: 2.94

Query string: Likewise for D21Y ?
Result string: 1.97

Query string: Now consider Q6K .
Result string: 3.09

The reported measurements were obtained from the supplement of paper PMC10567573.
